Target System: UniProt P04035
Assay Remarks: Inhibition of HMG-coA Reductase enzyme in AR45 cells
Type: cell-based
pIC50: −log10 of the molar value.
Record form. Attribute: pIC50. Fill in for each entry.

Give the measured pIC50 of CC(=O)[C@@]12CC[C@H]([C@H](C)CCCC(C)C)[C@@]1(C)CCC1C2=CCC2C(C)(C)[C@@H](O)CC[C@]12C (some centres not stated) .
< 4.70

Cool, now CC(C)CCC[C@@H](C)[C@H]1CC[C@@]2(C(C)O)C3=CCC4C(C)(C)[C@@H](O)CC[C@]4(C)C3CC[C@]12C (stereo in doubt; 17b)
< 4.70

---

Target System: UniProt:Q64654
Sequence (Q64654 whole entry): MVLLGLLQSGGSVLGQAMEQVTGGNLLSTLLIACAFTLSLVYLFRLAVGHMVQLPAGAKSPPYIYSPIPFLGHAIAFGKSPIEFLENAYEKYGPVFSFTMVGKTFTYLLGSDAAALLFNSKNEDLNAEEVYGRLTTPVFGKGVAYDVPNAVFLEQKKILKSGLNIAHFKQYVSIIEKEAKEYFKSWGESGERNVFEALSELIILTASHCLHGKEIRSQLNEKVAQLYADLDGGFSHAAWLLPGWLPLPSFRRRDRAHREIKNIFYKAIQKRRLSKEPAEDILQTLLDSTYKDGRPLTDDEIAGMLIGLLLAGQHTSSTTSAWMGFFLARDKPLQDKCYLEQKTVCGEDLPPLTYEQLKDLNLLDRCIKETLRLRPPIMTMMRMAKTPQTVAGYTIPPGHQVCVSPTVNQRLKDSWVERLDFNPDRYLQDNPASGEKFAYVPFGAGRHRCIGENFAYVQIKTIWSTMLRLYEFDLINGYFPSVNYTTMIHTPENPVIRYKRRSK
Observed Property: IC50 (nM)
Report only the number, with the unit nM understood.

Give the measured IC50 of CC(C)CCC[C@@H](C)[C@H]1CC[C@@]2(C(C)O)C3=CCC4C(C)(C)[C@@H](O)CC[C@]4(C)C3CC[C@]12C (stereo in doubt; 17a) .
330

---

Target System: UniProt:P04035
Assay Remarks: Inhibition of HMG-coA Reductase enzyme in chinese hamster ovary cells
Type: cell-based, Cricetulus griseus, CHO
Observed Property: pIC50
// field semantics: pIC50 = negative decimal log of concentration (mol/L)

Give the measured pIC50 of CC(C)CCC[C@@H](C)[C@H]1CC[C@@]2(C(C)O)C3=CCC4C(C)(C)[C@@H](O)CC[C@]4(C)C3CC[C@]12C (stereo in doubt; 17b) .
5.82

Cool, now CC(C)CCC[C@@H](C)[C@H]1CC[C@@]2(C(C)O)C3=CCC4C(C)(C)[C@@H](O)CC[C@]4(C)C3CC[C@]12C (stereo in doubt; 17a)
5.52

Cool, now CC(=O)[C@@]12CC[C@H]([C@H](C)CCCC(C)C)[C@@]1(C)CCC1C2=CCC2C(C)(C)[C@@H](O)CC[C@]12C (stereo partly drawn)
6.00

---

Target System: 3-hydroxy-3-methylglutaryl-coenzyme A reductase (Homo sapiens, UniProt P04035)
Sequence (P04035 whole entry): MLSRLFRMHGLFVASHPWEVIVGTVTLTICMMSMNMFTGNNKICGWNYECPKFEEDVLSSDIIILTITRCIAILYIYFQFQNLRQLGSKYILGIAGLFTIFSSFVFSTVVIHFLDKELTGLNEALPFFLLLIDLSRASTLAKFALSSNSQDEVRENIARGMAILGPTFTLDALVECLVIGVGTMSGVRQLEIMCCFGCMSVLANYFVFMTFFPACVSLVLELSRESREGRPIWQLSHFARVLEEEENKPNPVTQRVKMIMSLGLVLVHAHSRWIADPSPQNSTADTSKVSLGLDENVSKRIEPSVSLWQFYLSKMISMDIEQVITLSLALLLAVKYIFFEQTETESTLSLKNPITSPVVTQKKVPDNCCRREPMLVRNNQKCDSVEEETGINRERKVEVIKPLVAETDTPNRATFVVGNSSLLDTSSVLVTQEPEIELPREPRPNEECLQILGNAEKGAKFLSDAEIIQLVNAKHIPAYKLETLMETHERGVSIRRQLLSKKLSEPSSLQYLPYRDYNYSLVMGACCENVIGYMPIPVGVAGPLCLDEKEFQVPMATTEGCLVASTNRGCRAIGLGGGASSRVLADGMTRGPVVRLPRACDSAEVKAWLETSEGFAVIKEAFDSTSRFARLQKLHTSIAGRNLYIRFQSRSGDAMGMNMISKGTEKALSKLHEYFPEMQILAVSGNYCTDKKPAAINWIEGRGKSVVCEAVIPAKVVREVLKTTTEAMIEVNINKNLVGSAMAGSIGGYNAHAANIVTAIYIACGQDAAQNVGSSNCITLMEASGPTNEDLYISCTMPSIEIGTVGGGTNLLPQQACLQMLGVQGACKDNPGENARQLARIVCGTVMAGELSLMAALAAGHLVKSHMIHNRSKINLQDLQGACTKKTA
Assay Remarks: Inhibition of HMG-coA Reductase enzyme in AR45 cells
Format: cell-based
Condition Summary: ar45
pIC50: −log10 of the molar value.
Observed Property: pIC50

Give the measured pIC50 of CC(C)CCC[C@@H](C)[C@H]1CC[C@@]2(C(C)O)C3=CCC4C(C)(C)[C@@H](O)CC[C@]4(C)C3CC[C@]12C (stereo in doubt; 17a) .
< 4.70
